assay-comment: Oral bioavailability in human
Type: ADME, organism-based
test-parameters: in vivo
measured-endpoint: bioavailability (%)
Return type: number; implicit unit %.

Prompt: Respond only with bioavailability recorded for COCCc1ccc(OCC(O)CNC(C)C)cc1 (stereo unspecified) [METOPROLOL]
Completion: 38

Prompt: Respond only with bioavailability recorded for CC(C)(C)NC[C@H](O)COc1nsnc1N1CCOCC1 [TIMOLOL]
Completion: 50

----------
assay-comment: Metabolic stability observed at 30 min after administration in human liver microsomes
Type: ADME, Microsome
test-parameters: read-out: R
measured-endpoint: remaining at 0.5 h (%)
Return type: number; implicit unit %.

Observe how each entry below is paired with its result.
[[record]]
compound = "COc1ccc2c(c1)c(CC(=O)O)c(C)n2C(=O)c1ccc(Cl)cc1 [INDOMETHACIN]"
result_value = 95

[[record]]
compound = "COCCc1ccc(OCC(O)CNC(C)C)cc1 (stereo unspecified) [METOPROLOL]"
result_value = 73

[[record]]
compound = "CC(C)NCC(O)COc1cccc2ccccc12 (stereo unspecified) [PROPRANOLOL]"
result_value = 29

[[record]]
compound = "OC[C@@H](O)[C@@H](O)[C@H](O)[C@H](O)CO [MANNITOL]"
result_value = 100

[[record]]
compound = "NC(=O)N1c2ccccc2C=Cc2ccccc21 [CARBAMAZEPINE]"
result_value = 96


Prompt: Respond only with remaining at 0.5 h recorded for CC(C)(C)NC[C@H](O)COc1nsnc1N1CCOCC1 [TIMOLOL]
Completion: 71

----------
assay-comment: In vitro rate of absorption observed as Caco-2 permeability in humans
Format: ADME, cell-based
test-parameters: human, read-out: Papp e-6
# maps each entry to its Papp
Return type: number; implicit unit ×10⁻⁶ cm/s.

Observe how each entry below is paired with its result.
[[record]]
compound = "CC(=O)CC(c1ccccc1)c1c(O)c2ccccc2oc1=O (configuration not stated)"
result_value = 38.3

[[record]]
compound = "COCCc1ccc(OCC(O)CNC(C)C)cc1 (configuration not stated)"
result_value = 27

[[record]]
compound = "CC(C)NCC(O)COc1cccc2ccccc12 (configuration not stated)"
result_value = 41.9

[[record]]
compound = "COc1ccc2c(c1)c(CC(=O)O)c(C)n2C(=O)c1ccc(Cl)cc1"
result_value = 20.4

[[record]]
compound = "CC(C)(C)NC[C@H](O)COc1nsnc1N1CCOCC1"
result_value = 12.8


Prompt: Respond only with Papp recorded for `OC[C@@H](O)[C@@H](O)[C@H](O)[C@H](O)CO`
Completion: 2

Prompt: Respond only with Papp recorded for NC(=O)N1c2ccccc2C=Cc2ccccc21 [CARBAMAZEPINE]
Completion: 22.8

----------
assay-comment: Oral bioavailability in human
Type: ADME, organism-based
test-parameters: in vivo
# maps each entry to its bioavailability
Please make sure the unit comes right after the number.

Observe how each entry below is paired with its result.
[[record]]
compound = "COc1ccc2c(c1)c(CC(=O)O)c(C)n2C(=O)c1ccc(Cl)cc1 [INDOMETHACIN]"
result_value = "98%"

[[record]]
compound = "NC(=O)N1c2ccccc2C=Cc2ccccc21 [CARBAMAZEPINE]"
result_value = "70%"

[[record]]
compound = "OC[C@@H](O)[C@@H](O)[C@H](O)[C@H](O)CO [MANNITOL]"
result_value = "18%"


Let us move to another entry and its bioavailability.
Prompt: Respond only with bioavailability recorded for CC(C)NCC(O)COc1cccc2ccccc12 (centres undefined) [PROPRANOLOL]
Completion: 26%
